I'd appreciate it if you could supply median log2 fold change values for the items below.
- system-name: GABARAP, O95166
- Sequence (O95166 whole entry, the tested form may be a part): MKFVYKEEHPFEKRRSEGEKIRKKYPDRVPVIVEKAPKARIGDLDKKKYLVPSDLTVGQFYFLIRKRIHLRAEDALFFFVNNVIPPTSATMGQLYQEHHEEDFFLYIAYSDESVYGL
- measurement-notes: median log2 fold change of GCK-ALFA target abundance (FLAG IP / Myc IP barcode read proportion) (log2 ratio); each designed protein is fused to an ALFA-tag nanobody in HEK293 cells to bring the named protein to FLAG-tagged glucokinase (GCK); Myc marks an untargeted standard; higher = target protein stabilised (more abundant)
- experimental-context: target protein: 3xFLAG-MCP-GCK-ALFA reporter; HEK293 landing pad (RPLP)
In all, about 4,500 sequences were measured (“median log2 fold change of GCK-ALFA target abundance (FLAG IP / Myc IP barcode read proportion)”: median about 0.078, lowest 2% from about -0.6 on). The entries come from a sample that favours the lowest values as a whole.
Just the number, please.

Name the reported median log2 fold change value associated with the binder GBRAP_84_7005 (protein) SREEEIVEITAEILEKASIETKALLLTYLILKNANKAATLALNDLLEEDPEAAVEALDRATEAYEEGKEEEVEKELLEKAKEEGEELAELVERLLELLKE -0.259

Name the reported median log2 fold change value associated with the binder GBRAP_84_7007 (protein) SREQEILEITNKILEKGSIELKKKLLTYLILKNENKAATLALNYLLEEDPEAAVEALDEATEAYEEGKEEEVRKELLELAKKEGEEVYALVEELLELIDE -0.316

Name the reported median log2 fold change value associated with the binder GBRAP_84_7000 (protein) MREEEIEKLVDYLAENSSLELLKKLYVYLLLKNDNKGATRLLSYLLEKDPEAAAEALDKATEAALEEKEEEVKKELLELAKKEGEEIYKKVKKLIELLEE 0.0601

Name the reported median log2 fold change value associated with the binder GBRAP_11_2937 (protein) EKEKLKKAQELAKEAQELLKKIQKAGKLDEELLKKAQELLKKAAELAKELGLEEEQKDLELAQELLEEVQKAGKLDETKVAAAQALVFDVAHELEEKLEE 0.139
